# system.name: T1, Suc-AAPR-pNA
# T1 chain: AAPR
# experimental.setup: scale: relative to the substrate with the highest activity
measured.attribute: relative activity (initial increase in OD405)

protein: Glutamyl endopeptidase blaSE from Bacillus licheniformis (protein) SVIGSDDRTRVTNTTAYPYRAIVHISSSIGSCTGWMIGPKTVATAGHCIYDTSSGSFAGTATVSPGRNGTSYPYGSVKSTRYFIPSGWRSGNTNYDYGAIELSEPIGNTVGYFGYSYTTSSLVGTTVTISGYPGDKTAGTQWQHSGPIAISETYKLQYAMDTYGGQSGSPVFEQSSSRTNCSGPCSLAVHTNGVYGGSSYNRGTRITKEVFDNLTNWKNSAQ
reported.measurement: 0.0001
//
protein: Subtilisin Carlsberg from Bacillus licheniformis (protein) AQTVPYGIPLIKADKVQAQGFKGANVKVAVLDTGIQASHPDLNVVGGASFVAGEAYNTDGNGHGTHVAGTVAALDNTTGVLGVAPSVSLYAVKVLNSSGSGSYSGIVSGIEWATTNGMDVINMSLGGASGSTAMKQAVDNAYARGVVVVAAAGNSGSSGNTNTIGYPAKYDSVIAVGAVDSNSNRASFSSVGAELEVMAPGAGVYSTYPTNTYATLNGTSMASPHVAGAAALILSKHPNLSASQVRNRLSSTATYLGSSFYYGKGLINVEAAAQ
reported.measurement: 0.019
//
protein: Lysyl endopeptidase from Achromobacter lyticus (protein) GVSGSCNIDVVCPEGDGRRDIIRAVGAYSKSGTLACTGSLVNNTANDRKMYFLTAHHCGMGTASTAASIVVYWNYQNSTCRAPNTPASGANGDGSMSQTQSGSTVKATYATSDFTLLELNNAANPAFNLFWAGWDRRDQNYPGAIAIHHPNVAEKRISNSTSPTSFVAWGGGAGTTHLNVQWQPSGGVTEPGSSGSPIYSPEKRVLGQLHGGPSSCSATGTNRSDQYGRVFTSWTGGGAAASRLSDWLDPASTGAQFIDGLDSGGGTP
reported.measurement: 0.0005
//
protein: Trypsin from Fusarium oxysporum (protein) IVGGTSASAGDFPFIVSISRNGGPWCGGSLLNANTVLTAAHCVSGYAQSGFQIRAGSLSRTSGGITSSLSSVRVHPSYSGNNNDLAILKLSTSIPSGGNIGYARLAASGSDPVAGSSATVAGWGATSEGGSSTPVNLLKVTVPIVSRATCRAQYGTSAITNQMFCAGVSSGGKDSCQGDSGGPIVDSSNTLIGAVSWGNGCARPNYSGVYASVGALRSFIDTYA
reported.measurement: 1
//
protein: Glutamyl endopeptidase II sprE from Streptomyces griseus (protein) VLGGGAIYGGGSRCSAAFNVTKGGARYFVTAGHCTNISANWSASSGGSVVGVREGTSFPTNDYGIVRYTDGSSPAGTVDLYNGSTQDISSAANAVVGQAIKKSGSTTKVTSGTVTAVNVTVNYGDGPVYNMVRTTACSAGGDSGGAHFAGSVALGIHSGSSGCSGTAGSAIHQPVTEALSAYGVTVY
reported.measurement: 0.0001
//
protein: Thermostable alkaline protease BH0855 from Bacillus halodurans (protein) QTVPWGISFINTQQAHNRGIFGNGARVAVLDTGIASHPDLRIAGGASFISSEPSYHDNNGHGTHVAGTIAALNNSIGVLGVAPSADLYAVKVLDRNGSGSLASVAQGIEWAINNNMHIINMSLGSTSGSSTLELAVNRANNAGILLVGAAGNTGRQGVNYPARYSGVMAVAAVDQNGQRASFSTYGPEIEISAPGVNVNSTYTGNRYVSLSGTSMATPHVAGVAALVKSRYPSYTNNQIRQRINQTATYLGSPSLYGNGLVHAGRATQ
reported.measurement: 0.0069
